Kindly state C trough,norm, geometric mean (% CV) for each of the entries shown.
test: Plasma pharmacokinetics at steady state of sorafenib; type: in vivo, patients with advanced cancer; conditions: plasma; Day 1 of cycle 2; sorafenib 400 mg bid

Query: State, in one line, measured C trough,norm, geometric mean (% CV) of CNC(=O)c1cc(Oc2ccc(NC(=O)Nc3ccc(Cl)c(C(F)(F)F)c3)cc2)ccn1
Result: 0.7 (85.4) kg/L

Query: Identify the reported C trough,norm, geometric mean (% CV) for the following entry. NC(=O)c1cc(Oc2ccc(NC(=O)Nc3ccc(Cl)c(C(F)(F)F)c3)cc2)cc[n+]1[O-]
Result: 0.1 (113.5) kg/L

Query: Read the entry NC(=O)c1cc(Oc2ccc(NC(=O)Nc3ccc(Cl)c(C(F)(F)F)c3)cc2)ccn1 and write its reported C trough,norm, geometric mean (% CV).
Result: <0.1 (85.0) kg/L

Query: In one line, give reported C trough,norm, geometric mean (% CV) of the entry CNC(=O)c1cc(Oc2ccc(NC(=O)Nc3ccc(Cl)c(C(F)(F)F)c3)cc2)cc[n+]1[O-] .
Result: 0.1 (85.9) kg/L
